System: Escherichia coli TOP10;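 note: peptides expressed intracellularly from a pBAD plasmid library in pooled LB shake-flask culture, induced with 0.3% L-arabinose, DNA abundance read by NGS, three biological replicates, DESeq2 with apeglm shrinkage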
assay_overview: shrunken log2 fold change of peptide-encoding DNA abundance (4.5 h post-induction vs induction); higher = less antimicrobial activity (less host growth inhibition)
condition_description: time post-induction: 4.5 h; library: site-saturation at positions 5, 18, 19, 20
# key: entry, value: shrunken log2 fold change
Kindly provide the number alone.

Consider the reported shrunken log2 fold change for these sequences:
RRIRYRPPRLPRPRPRPCIFPRP :: -0.559
RRIRIRPPRLPRPRPRPLKPPRP :: -0.296
RRIRARPPRLPRPRPRPSCYPRP :: 0.0075

In: What measured shrunken log2 fold change goes with RRIRNRPPRLPRPRPRPIMKPRP ?
Out: -0.059

In: What measured shrunken log2 fold change goes with RRIRGRPPRLPRPRPRPANQPRP ?
Out: 0.329

In: What measured shrunken log2 fold change goes with RRIRKRPPRLPRPRPRPNQTPRP ?
Out: 0.00514

In: What measured shrunken log2 fold change goes with RRIRGRPPRLPRPRPRPIVAPRP ?
Out: 0.727

In: What measured shrunken log2 fold change goes with RRIRIRPPRLPRPRPRPWWQPRP ?
Out: 0.0732

In: What measured shrunken log2 fold change goes with RRIRPRPPRLPRPRPRPIGYPRP ?
Out: -0.0758

In: What measured shrunken log2 fold change goes with RRIRARPPRLPRPRPRPHMCPRP ?
Out: -0.174

In: What measured shrunken log2 fold change goes with RRIRLRPPRLPRPRPRPHNYPRP ?
Out: -0.749

In: What measured shrunken log2 fold change goes with RRIRARPPRLPRPRPRPFSFPRP ?
Out: -0.235
